EXPERIMENT_SUMMARY: Cmax in CD-1 mouse at 5 mg/kg, po administered as single dose measured up to 24 hrs
Type: ADME, organism-based
Set-up: route oral, dose 5 mg/kg, time <=24
DETAILS: in vivo
Each record here notes measured Cmax.
Reply numerically in ng/mL, unit not repeated.

Recorded results for 5 compounds are shown here.
| COMPOUND_STRING | VALUE_TYPE | REPORTED_MEASUREMENT |
| --- | --- | --- |
| CCn1nc(C2(C)CC2)cc1Nc1nc(-c2ccc(-n3cnc(C)c3)c(OC)n2)cs1 | Cmax | 592 |
| COc1nc(-c2csc(Nc3c4c(nn3C)CCC4)n2)ccc1-n1cnc(C)c1 | Cmax | 580 |
| COc1nc(-c2csc(Nc3c4c(nn3CCF)CCCC4)n2)ccc1-n1cnc(C)c1 | Cmax | 167 |
| CCn1nc(C(F)(F)F)cc1Nc1nc(-c2ccc(-n3cnc(C)c3)c(OC)n2)cs1 | Cmax | 470 |
| CCn1nc2c(c1Nc1nc(-c3ccc(-n4cnc(C)c4)c(OC)n3)cs1)CCC2 | Cmax | 377 |

Proceeding to the next compound to report its Cmax.
Measured Cmax, "CCn1nc2c(c1Nc1nc(-c3ccc(-n4cnc(C)c4)c(OC)n3)cs1)CCCC2" : 705

* * *

EXPERIMENT_SUMMARY: Metabolic stability in human liver microsomes assessed as parent compound remaining at 1 uM incubated for 30 mins
Format: ADME, Microsome
DETAILS: microsomes, 0.5 h, 1 µM
VALUE_TYPE: Stabilty (%)
Reply numerically in %, unit not repeated.

| COMPOUND_STRING | REPORTED_MEASUREMENT |
| --- | --- |
| COc1nc(-c2csc(Nc3c4c(nn3CC(F)(F)F)CCCC4)n2)ccc1-n1cnc(C)c1 | 13 |

Measured Stabilty, "CCn1nc(C2(C)CC2)cc1Nc1nc(-c2ccc(-n3cnc(C)c3)c(OC)n2)cs1" : 67

Measured Stabilty, "COc1nc(-c2csc(Nc3c4c(nn3C)CCCC4)n2)ccc1-n1cnc(C)c1" : 36

Measured Stabilty, "COc1nc(-c2csc(Nc3cc(C(C)(C)C)nn3CCF)n2)ccc1-n1cnc(C)c1" : 49

Measured Stabilty, "COc1nc(-c2csc(Nc3c4c(nn3CCCO)CCCC4)n2)ccc1-n1cnc(C)c1" : 17

* * *

EXPERIMENT_SUMMARY: Drug level in plasma of transgenic Tg2576 mouse overexpressing human APP harboring K595N/M596L Swedish double mutant at 50 mg/kg, po administered via gavage for 14 consecutive days and measured after 4 hrs post last dose on day 14 by HPLC-MS/MS analysis
Assay type: ADME, organism-based
DETAILS: time 14 day
VALUE_TYPE: concentration at 336 h (ng/mL)
Reply numerically in ng/mL, unit not repeated.

Measured concentration at 336 h, "CCn1nc2c(c1Nc1nc(-c3ccc(-n4cnc(C)c4)c(OC)n3)cs1)CCC2" : 1130

* * *

Each record here notes measured pIC50.
TARGET_DESC: UniProtKB P08684
EXPERIMENT_SUMMARY: Inhibition of recombinant CYP3A4 (unknown origin) by fluorescence-based assay
Keep it numeric: pIC50 is minus log10 of the concentration in mol/L.

Recorded results for 3 compounds are shown here.
| COMPOUND_STRING | TARGET_DESC | REPORTED_MEASUREMENT |
| --- | --- | --- |
| COc1nc(-c2csc(Nc3c4c(nn3CCF)CCCC4)n2)ccc1-n1cnc(C)c1 | UniProtKB P08684 | 6.00 |
| COc1nc(-c2csc(Nc3c4c(nn3C(C)(C)C)CCCC4)n2)ccc1-n1cnc(C)c1 | UniProtKB P08684 | 5.28 |
| CCn1nc(C(F)(F)F)cc1Nc1nc(-c2ccc(-n3cnc(C)c3)c(OC)n2)cs1 | UniProtKB P08684 | 5.28 |

Proceeding to the next compound to report its pIC50.
Measured pIC50, "COc1nc(-c2csc(Nc3c4c(nn3C)CCC4)n2)ccc1-n1cnc(C)c1" : 5.35

* * *

EXPERIMENT_SUMMARY: Metabolic stability in human liver microsomes assessed as parent compound remaining at 1 uM incubated for 30 mins
Format: ADME, Microsome
DETAILS: microsomes, 0.5 h, 1 µM
Assign class by Stabilty: not lower than 30% means 1; lower than 30% means -1.

Here's what some known entries look like.
| MOLECULE | LABEL_VALUE |
| --- | --- |
| COc1nc(-c2csc(Nc3c4c(nn3C(C)C)CCC4)n2)ccc1-n1cnc(C)c1 | -1 |
| CCn1nc2c(c1Nc1nc(-c3ccc(-n4cnc(C)c4)c(OC)n3)cs1)CCC2 | 1 |
| COc1nc(-c2csc(Nc3c4c(nn3CCF)CCCC4)n2)ccc1-n1cnc(C)c1 | 1 |
| CCn1nc2c(c1Nc1nc(-c3ccc(-n4cnc(C)c4)c(OC)n3)cs1)CCC2(C)C | 1 |
| COc1nc(-c2csc(Nc3c4c(nn3C3CCOC3)CCCC4)n2)ccc1-n1cnc(C)c1 (racemic) | -1 |
| COc1nc(-c2csc(Nc3c4c(nn3CCN3CCOCC3)CCCC4)n2)ccc1-n1cnc(C)c1 | -1 |
| COc1nc(-c2csc(Nc3c4c(nn3CC(C)(C)O)CCCC4)n2)ccc1-n1cnc(C)c1 | -1 |
| CCn1nc2c(c1Nc1nc(-c3ccc(-n4cnc(C)c4)c(OC)n3)cs1)CCCC2 | 1 |

Next molecule, please.
Hello, I need to know if "COCCn1nc2c(c1Nc1nc(-c3ccc(-n4cnc(C)c4)c(OC)n3)cs1)CCCC2" has measured Stabilty not below 30%. Thanks!
-1

* * *

TARGET_DESC: Cytochrome P450 3A4 (Homo sapiens)
Sequence (P08684 whole entry): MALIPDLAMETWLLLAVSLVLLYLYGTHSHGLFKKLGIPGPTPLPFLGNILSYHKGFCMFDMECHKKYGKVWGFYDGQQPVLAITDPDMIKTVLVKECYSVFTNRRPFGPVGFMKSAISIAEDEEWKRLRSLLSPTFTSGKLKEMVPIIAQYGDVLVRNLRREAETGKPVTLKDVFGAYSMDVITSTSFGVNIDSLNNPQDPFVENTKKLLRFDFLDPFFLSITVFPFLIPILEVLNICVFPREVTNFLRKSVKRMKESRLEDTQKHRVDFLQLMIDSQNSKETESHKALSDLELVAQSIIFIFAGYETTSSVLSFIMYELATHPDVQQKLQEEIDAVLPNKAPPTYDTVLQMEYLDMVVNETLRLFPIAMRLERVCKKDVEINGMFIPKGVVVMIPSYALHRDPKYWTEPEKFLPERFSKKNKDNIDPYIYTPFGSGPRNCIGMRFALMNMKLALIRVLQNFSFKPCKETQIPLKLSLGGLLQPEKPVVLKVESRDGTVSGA
EXPERIMENT_SUMMARY: Inhibition of recombinant CYP3A4 (unknown origin) by fluorescence-based assay
VALUE_TYPE: log10 IC50 (log10 of the value in nM)
The common logarithm of IC50 in nM is what is listed.

Recorded results for 6 compounds are shown here.
| COMPOUND_STRING | REPORTED_MEASUREMENT |
| --- | --- |
| COc1nc(-c2csc(Nc3cc(C(C)(C)C)nn3CCF)n2)ccc1-n1cnc(C)c1 | 1.60 |
| COc1nc(-c2csc(Nc3c4c(nn3CCF)CCC4)n2)ccc1-n1cnc(C)c1 | 4.02 |
| CCn1nc2c(c1Nc1nc(-c3ccc(-n4cnc(C)c4)c(OC)n3)cs1)CCC2(C)C | 2.88 |
| COc1nc(-c2csc(Nc3c4c(nn3C3CCC3)CCCC4)n2)ccc1-n1cnc(C)c1 | 2.77 |
| COc1nc(-c2csc(Nc3c4c(nn3CCO)CCCC4)n2)ccc1-n1cnc(C)c1 | 4.48 |
| COc1nc(-c2csc(Nc3cc(C(C)(C)C)nn3C(C)C)n2)ccc1-n1cnc(C)c1 | 3.36 |

Cytochrome P450 3A4 (Homo sapiens) log10 IC50 of "CCn1nc2c(c1Nc1nc(-c3ccc(-n4cnc(C)c4)c(OC)n3)cs1)CCCCC2" is 4.04

* * *

Each record here notes measured IC50.
TARGET_DESC: Gamma-secretase
EXPERIMENT_SUMMARY: Modulation of gamma secretase in human SH-SY5Y cells overexpressing wild type APP751 assessed as inhibition of amyloid beta (35 to 42 residues) formation incubated for overnight by ELISA
Format: cell-based
Reply numerically in nM, unit not repeated.

Recorded results for 3 molecules are shown here.
| COMPOUND_STRING | TARGET_DESC | IC50, nM |
| --- | --- | --- |
| CCCn1nc(C(C)(C)C)cc1Nc1nc(-c2ccc(-n3cnc(C)c3)c(OC)n2)cs1 | Gamma-secretase | 100 |
| CCn1nc2c(c1Nc1nc(-c3ccc(-n4cnc(C)c4)c(OC)n3)cs1)CCC2(C)C | Gamma-secretase | 109 |
| COc1nc(-c2csc(Nc3c4c(nn3CCCO)CCCC4)n2)ccc1-n1cnc(C)c1 | Gamma-secretase | 50 |

Measured IC50, "CCn1nc2c(c1Nc1nc(-c3ccc(-n4cnc(C)c4)c(OC)c3)cs1)CCCC2" : 171

* * *

TARGET_DESC: Gamma-secretase
EXPERIMENT_SUMMARY: Modulation of gamma secretase in human SH-SY5Y cells overexpressing wild type APP751 assessed as inhibition of amyloid beta (35 to 42 residues) formation incubated for overnight by ELISA
Type: cell-based
VALUE_TYPE: IC50 (nM)
Reply numerically in nM, unit not repeated.

Recorded results for 3 compounds are shown here.
| COMPOUND | IC50 / nM |
| --- | --- |
| COc1nc(-c2csc(Nc3c4c(nn3C(C)C)CCCC4)n2)ccc1-n1cnc(C)c1 | 46 |
| Cc1cn(-c2ccc(-c3csc(Nc4cc(C(C)(C)C)nn4C)n3)cn2)cn1 | 590 |
| CCn1nc2c(c1Nc1nc(-c3ccc(-n4cnc(C)c4)c(OC)n3)cs1)CCCCC2 | 32 |

Measured IC50, "COc1nc(-c2csc(Nc3cc(C(F)(F)F)nn3C(C)(C)C)n2)ccc1-n1cnc(C)c1" : 126

Measured IC50, "COc1nc(-c2csc(Nc3c4c(nn3C3CCCCC3)CCCC4)n2)ccc1-n1cnc(C)c1" : 63
